Just for reference, patent US20250186597A1 is where these values come from.

Target: T1, human IL-18BP (Homo sapiens, UniProt O95998)
T1 construct: His
T1 sequence (O95998 31-194): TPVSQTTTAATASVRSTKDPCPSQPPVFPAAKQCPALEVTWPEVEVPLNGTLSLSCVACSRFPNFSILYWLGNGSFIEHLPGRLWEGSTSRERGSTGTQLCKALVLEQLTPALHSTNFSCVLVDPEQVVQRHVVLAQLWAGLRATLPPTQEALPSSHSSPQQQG
Assay: IL-18BP binding alphaLISA assay (Example 4, used in Example 22B)
Settings: IL-18BP AlphaLISA
quantityKind: Kd (nM)

molecule="C184: IL-18 polypeptide: E6R, V11I, C38A, K53A, T63A, C76A, C127A (protein) YFGKLRSKLSIIRNLNDQVLFIDQGNRPLFEDMTDSDARDNAPRTIFIISMYADSQPRGMAVAISVKCEKISTLSAENKIISFKEMNPPDNIKDTKSDIIFFQRSVPGHDNKMQFESSSYEGYFLAAEKERDLFKLILKKEDELGDRSIMFTVQNED" measurementunits=nM experimentalresult=5.46

A. 47 (protein) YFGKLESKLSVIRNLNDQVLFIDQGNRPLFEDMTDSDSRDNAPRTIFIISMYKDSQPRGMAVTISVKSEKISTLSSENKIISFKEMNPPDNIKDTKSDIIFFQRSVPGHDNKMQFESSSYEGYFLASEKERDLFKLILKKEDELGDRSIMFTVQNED
B. 54 (protein) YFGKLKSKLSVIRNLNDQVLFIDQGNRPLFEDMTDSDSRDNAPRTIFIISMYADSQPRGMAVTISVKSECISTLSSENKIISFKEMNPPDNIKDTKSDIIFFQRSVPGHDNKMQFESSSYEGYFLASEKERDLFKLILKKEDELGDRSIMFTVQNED
Q: Pick one: A or B . Which one has the lower reported Kd? Lab log: write the label of the selected item as the result.
Ans: A
(A: 0.03 nM, B: 446 nM)
